test system: VIM-1 (Pseudomonas aeruginosa (strain ATCC 15692 / DSM 22644 / CIP 104116 / JCM 14847 / LMG 12228 / 1C / PRS 101 / PAO1), UniProt A0A0F7KYQ8)
test protocol: biochemical
measurement setup: VIM-1 IC50, fluorescence assay, CCF2-FA substrate, 30 pM enzyme, 2 hours at 25° C.

| compound | IC50, nM |
| --- | --- |
| NC[C@@H](N)CNS(=O)(=O)c1ccc(-c2cccc3[nH]c(N)nc23)c(-c2nn[nH]n2)c1S(N)(=O)=O [Example 375] | 0.233 |
| Nc1nc2c(-c3ccc(S(=O)(=O)N[C@H]4C[C@H](N)C4)c(S(N)(=O)=O)c3-c3nnn[nH]3)cccc2s1.O=C(O)C(F)(F)F [Example 98] | 0.169 |
| NCc1nc2cc(-c3ccc(S(=O)(=O)N[C@@H]4CCNC4)c(S(N)(=O)=O)c3-c3nn[nH]n3)ccc2s1 [Example 275] | 0.0902 |
| Nc1nc2c(-c3ccc(S(=O)(=O)N4CC(F)(F)C4)c(S(N)(=O)=O)c3-c3nnn[nH]3)cccc2s1 [Example 42] | 0.669 |
| Nc1ncccc1-c1ccc(S(=O)(=O)N[C@H]2C[C@@H]2N)c(S(N)(=O)=O)c1-c1nn[nH]n1 [Example 216] | 0.269 |
| Nc1ncc(-c2ccc(S(=O)(=O)N[C@H]3CNC[C@H]3N)c(S(N)(=O)=O)c2-c2nn[nH]n2)s1 [Example 325] | 0.896 |
| Nc1nc2c(-c3ccc(S(=O)(=O)N[C@H]4CN[C@H](CO)C4)c(S(N)(=O)=O)c3-c3nnn[nH]3)cccc2[nH]1 [Example 172] | 0.159 |
| NC[C@@H](CO)NS(=O)(=O)c1ccc(-c2ccnc(N)c2)c(-c2nn[nH]n2)c1S(N)(=O)=O [Example 380] | 0.179 |
| Cn1c(N)nc2c(-c3ccc(S(=O)(=O)N[C@H]4CC[N+](C)(C)C4)c(S(N)(=O)=O)c3-c3nn[n-]n3)cccc21 [Example 167] | 0.169 |
| CC1(NS(=O)(=O)c2ccc(-c3cccc4[nH]c(N)nc34)c(-c3nn[nH]n3)c2S(N)(=O)=O)CNC1 [Example 257] | 0.157 |
| NS(=O)(=O)c1c(S(=O)(=O)N[C@@H]2CCNC2)ccc(-c2cnc3cc[nH]c3c2)c1-c1nn[nH]n1 [Example 282] | 0.133 |
| NS(=O)(=O)c1c(S(=O)(=O)N[C@@H]2CCNC2)ccc(-c2cccn3ccnc23)c1-c1nn[nH]n1 [Example 291] | 0.0694 |
| NCC(CN)NS(=O)(=O)c1ccc(-c2cccc3[nH]nnc23)c(-c2nn[nH]n2)c1S(N)(=O)=O [Example 403] | 0.175 |
| C[C@H](N)CNS(=O)(=O)c1ccc(-c2cccc3sc(N)nc23)c(-c2nnn[nH]2)c1S(N)(=O)=O.O=CO [Example 127, formate salt] | 0.236 |
| N[C@H]1CNC[C@H]1NS(=O)(=O)c1ccc(-c2cnc3cc[nH]c3c2)c(-c2nn[nH]n2)c1S(N)(=O)=O [Example 320] | 0.296 |
| CN(C1CNC1)S(=O)(=O)c1ccc(-c2cccc3sc(N)nc23)c(-c2nnn[nH]2)c1S(N)(=O)=O.O=C(O)C(F)(F)F [Example 105, 2,2,2-trifluoroacetate] | 1.14 |
| Nc1nc2c(-c3ccc(S(=O)(=O)N[C@@H]4CNC[C@@H]4O)c(S(N)(=O)=O)c3-c3nnn[nH]3)cccc2[nH]1 [Example 170] | 0.257 |
| NCCNS(=O)(=O)c1ccc(-c2cccc(C(=O)NCC(O)CN)c2)c(-c2nn[nH]n2)c1S(N)(=O)=O (stereo in doubt) [Example 347] | 0.536 |
| NCc1nc2c(-c3ccc(S(=O)(=O)N[C@@H]4CCNC4)c(S(N)(=O)=O)c3-c3nn[nH]n3)cccc2s1 [Example 276] | 0.0881 |
| NCCNS(=O)(=O)c1ccc(C2CCC[C@H](N)C2)c(-c2nn[nH]n2)c1S(N)(=O)=O (some centres unmarked) [Example 342] | 5.31 |
| NC[C@H](N)CNS(=O)(=O)c1ccc(-c2cnc3cc[nH]c3c2)c(-c2nn[nH]n2)c1S(N)(=O)=O [Example 373] | 0.121 |
| Nc1nc2c(-c3ccc(S(=O)(=O)NCC4COCCN4)c(S(N)(=O)=O)c3-c3nnn[nH]3)cccc2s1.O=C(O)C(F)(F)F (centres unmarked) [Example 96, 2,2,2-trifluoroacetate] | 0.299 |
| Nc1nc(-c2cccc(-c3ccc(S(=O)(=O)N[C@H]4CCNC4)c(S(N)(=O)=O)c3-c3nn[nH]n3)c2)c[nH]1 [Example 294] | 0.742 |
| NCCNS(=O)(=O)c1ccc(-c2cccn3ccnc23)c(-c2nn[nH]n2)c1S(N)(=O)=O [Example 361] | 0.0953 |
| C[C@@H](N)CNS(=O)(=O)c1ccc(-c2cccc3sc(N)nc23)c(-c2nn[nH]n2)c1S(N)(=O)=O [Example 390] | 0.33 |
| Nc1ccc(-c2ccc(S(=O)(=O)NC[C@]3(N)CCNC3)c(S(N)(=O)=O)c2-c2nn[nH]n2)cn1 [Example 368] | 0.253 |
